Source listed as paper PMC5666896.

Assay Overview: in vivo
Experimental Conditions: in vivo
Task for the reader: assign each of the following molecules its reported LC50 at 24 h.
The reply should be a number in µM, with the unit left off.

Sure, the documented LC50 at 24 h for O=C(/C=C/C=C/c1ccc2c(c1)OCO2)N1CCCCC1 is 145

The molecule identified as Cc1cc(O)c2c(c1)C(=O)c1cc(O)cc(O)c1C2=O registered its LC50 at 24 h at 34.7

----------
Could you please report measured LC50 at 48 h for the items listed next?
Assay Overview: in vivo
Experimental Conditions: in vivo
Description: The Daphnia magna test was performed in 4 mL 12-tissue culture wells, using 10 daphnids/well, with each sample being tested in duplicate. […] Statistical analysis of the inhibitory effect on SrtA and the Daphnia magna bioassay was performed using GraphPad Prism version 5.01 software (GraphPad Software, Inc., La Jolla, CA, USA). […] Whenever the obtained results permitted, the upper and lower limits of the 95% confidence interval (95% CI) and the correlation coefficient (r^2) were calculated.
Field format: number, assumed µM, no unit text.

Note to self: LC50 at 48 h recorded for Cc1cc(O)c2c(c1)C(=O)c1cc(O)cc(O)c1C2=O was 24.2

Short answer for O=c1ccc2ccc(O)cc2o1 : LC50 at 48 h was 105

Quick note, LC50 at 48 h for COc1cc([C@@H]2c3cc4c(cc3[C@H](O)[C@H]3COC(=O)[C@H]23)OCO4)cc(OC)c1OC landed at 6.47

get_value(item= O=C(/C=C/C=C/c1ccc2c(c1)OCO2)N1CCCCC1 , readout=LC50 at 48 h) returns 3.45

Record O=c1cc(-c2ccccc2)oc2cc(O)cc(O)c12 , field LC50 at 48 h: 17.7
